The measured values listed here are drawn from the supplement of paper PMC10127200.

System: FB
TEST_METHOD_NOTES: Euclidean distance of Cell Painting phenotypic profile (signed KS, 77 features) to DMSO centroid (dimensionless distance); 5 or 10 uM (library dependent); higher = stronger phenotypic change vs DMSO (phenoactivity)
CONDITIONS: 48 h
Structures can show the parent of a compound that is named as a salt.
Please map values of Euclidean distance to classes as shown: lower range: < 1; middle range: ≥ 1 and < 2; upper range: ≥ 2

Reference set (5 entries):
COC(c1ccccc1)(c1ccccc1)[C@H](Oc1nc(C)cc(C)n1)C(=O)O [Ambrisentan]
lower range
CN(C)c1ccc2nc3ccc(=[N+](C)C)cc-3sc2c1 [Methylene Blue]
upper range
O=C(/C=C/c1ccc(O)cc1)c1ccc(O)cc1O [Isoliquiritigenin]
lower range
CNC[C@H](O)c1cccc(O)c1 [Phenylephrine HCl]
middle range
Cc1nc(N(C)C(=O)Cc2ccc(-c3ccccn3)cc2)sc1S(N)(=O)=O [Pritelivir (BAY 57-1293)]
lower range

Lab log: C[C@]12CC[C@@H]3c4ccc(O)cc4CC[C@H]3[C@@H]1CCC2=O [Estrone] — assign Euclidean distance category
middle range

Lab log: COc1cc(O)c2c(c1)C(=O)c1cc(C)cc(O)c1C2=O [Rheochrysidin] — assign Euclidean distance category
lower range

###

Tested on: OVCAR4
TEST_METHOD_NOTES: Euclidean distance of Cell Painting phenotypic profile (signed KS, 77 features) to DMSO centroid (dimensionless distance); 5 or 10 uM (library dependent); higher = stronger phenotypic change vs DMSO (phenoactivity)
CONDITIONS: 48 h
Counter-ions that a name gives are not always drawn.
# Lookup of reported Euclidean distance keyed by entry
// return just the number, without any unit appended

Look over these answered cases.
C[C@@H](NCCCc1cccc(C(F)(F)F)c1)c1cccc2ccccc12 [Cinacalcet HCl]
1.42
Oc1c(I)cc(Cl)c2cccnc12 [Clioquinol]
1.24
CCCCCCCC(=O)N[C@H](CN1CCCC1)[C@H](O)c1ccc2c(c1)OCCO2 [Eliglustat]
1.06
Cn1c(=O)c2c(ncn2CC2OCCO2)n(C)c1=O [Doxofylline]
1.15
Nc1nc(N)c(N=O)c(OCC2CCCCC2)n1
1.38
Cc1ccc(S(=O)(=O)Cc2nc(-c3ccc(C(=O)NCc4cccnc4)cc3)oc2C)cc1
2.14

Please supply the value of reported Euclidean distance for the item O=C1CN2Cc3c(ccc(Cl)c3Cl)N=C2N1 [Anagrelide HCl]
1.53

Please supply the value of reported Euclidean distance for the item C=C(CC)C(=O)c1ccc(OCC(=O)O)c(Cl)c1Cl [Ethacrynic Acid]
1.14

Please supply the value of reported Euclidean distance for the item CC1=C(/C=C/C(C)=C/C=C/C(C)=C\C(=O)O)C(C)(C)CCC1 [Isotretinoin]
1.46

Please supply the value of reported Euclidean distance for the item COc1cc2c3cc1Oc1c(OC)c(OC)cc4c1[C@@H](Cc1ccc(O)c(c1)Oc1ccc(cc1)C[C@@H]3N(C)CC2)N(C)CC4 [Berbamine]
2.64

Please supply the value of reported Euclidean distance for the item NC(=O)Nc1sc(-c2ccc(F)cc2)cc1C(N)=O
1

###

Test system: OVCAR4
TEST_METHOD_NOTES: Euclidean distance of Cell Painting phenotypic profile (signed KS, 77 features) to DMSO centroid (dimensionless distance); 5 or 10 uM (library dependent); higher = stronger phenotypic change vs DMSO (phenoactivity)
CONDITIONS: 48 h
Structures can show the parent of a compound that is named as a salt.
# Lookup of reported Euclidean distance keyed by entry
// return just the number, without any unit appended

COCC(=O)Nc1c(I)c(C(=O)NCC(O)CO)c(I)c(C(=O)N(C)CC(O)CO)c1I (stereo not given) [Iopromide]
1.07

Please supply the value of reported Euclidean distance for the item CNC(=O)c1ccc(-c2cnc3ncc(Cc4ccc5ncccc5c4)n3n2)cc1F
0.726

Please supply the value of reported Euclidean distance for the item CCCOc1ccc2[nH]c(NC(=O)OC)nc2c1
2.58

Please supply the value of reported Euclidean distance for the item Cn1cc(C2=C(c3cn(CCCSC(=N)N)c4ccccc34)C(=O)NC2=O)c2ccccc21 [Ro 31-8220 Mesylate]
2.82

Please supply the value of reported Euclidean distance for the item N[C@H]1C(O)O[C@H](CO)[C@@H](O)[C@@H]1O (stereo not given in full)
1.28

Please supply the value of reported Euclidean distance for the item CCOc1nc2cccc(C(=O)OCc3oc(=O)oc3C)c2n1Cc1ccc(-c2ccccc2-c2noc(=O)[nH]2)cc1
0.929

Please supply the value of reported Euclidean distance for the item O=C(O)/C=C/c1ccc(Cn2ccnc2)cc1 [Ozagrel HCl]
1.61

Please supply the value of reported Euclidean distance for the item C1=N/C2=N/c3ccc(OCCN4CCCC4)c(c3)COC/C=C/COCc3cccc(c3)C(=C1)N2 [Pacritinib (SB1518)]
3.42

Please supply the value of reported Euclidean distance for the item COc1cccc2c1C(=O)c1c(O)c3c(c(O)c1C2=O)C[C@@](O)(C(=O)CO)C[C@@H]3O[C@H]1C[C@H](N)[C@H](O)[C@H](C)O1
5

Please supply the value of reported Euclidean distance for the item Cc1cc(C#N)cc(C)c1Oc1nc(Nc2ccc(C#N)cc2)nc(N)c1Br
1.73

###

System: A549
TEST_METHOD_NOTES: Euclidean distance of Cell Painting phenotypic profile (signed KS, 77 features) to DMSO centroid (dimensionless distance); 5 or 10 uM (library dependent); higher = stronger phenotypic change vs DMSO (phenoactivity)
CONDITIONS: 48 h
Where a name gives a salt, the structure may show the parent alone.
# Lookup of reported Euclidean distance keyed by entry
// return just the number, without any unit appended

CCOc1cc(N)c(Cl)cc1C(=O)NCC1CN(Cc2ccc(F)cc2)CCO1 (configuration not stated) [Mosapride]
0.542
COc1cc(CNC(=O)CCCCC=CC(C)C)ccc1O [Capsaicin(Vanilloid)]
1.47
Nc1nc2cc(-c3ccc4ncc(C(=O)N5CCOCC5)n4c3)ccc2o1 [Serabelisib (INK-1117.MLN-1117.TAK-117)]
1.76
O=C(COc1cccc2c(=O)[nH]ccc12)c1ccccc1
1.09
CC(CN1c2ccccc2Sc2ccccc21)N(C)C (configuration not stated) [Promethazine HCl]
0.962
CCCCCCCCCCCCCCCCn1cc[n+](Cc2ccccc2)c1C
4.18

Please supply the value of reported Euclidean distance for the item CC(C)(O)c1cc(Nc2cc(Oc3cn(C4CC4)nc3C3CCOCC3)ccn2)ccn1
0.879

Please supply the value of reported Euclidean distance for the item O=C(c1ccc(/C=C/c2n[nH]c3ccccc23)cc1)N1CCNCC1
3.89

Please supply the value of reported Euclidean distance for the item Oc1cc(O)cc(/C=C/c2ccc(O)c(O)c2)c1 [Piceatannol]
1.05

Please supply the value of reported Euclidean distance for the item COc1ccc2[nH]c([S@@+]([O-])Cc3ncc(C)c(OC)c3C)nc2c1 [NEXIUM (esomeprazole magnesium)]
0.829

Please supply the value of reported Euclidean distance for the item Cc1cn([C@H]2C[C@H](N=[N+]=[N-])[C@@H](CO)O2)c(=O)[nH]c1=O [Zidovudine]
0.708

Please supply the value of reported Euclidean distance for the item COc1cc(N2CCN(C)CC2)ccc1Nc1nccc(-c2cn(C)c3cnccc23)n1
1.56

###

Tested on: HEPG2
TEST_METHOD_NOTES: Euclidean distance of Cell Painting phenotypic profile (signed KS, 77 features) to DMSO centroid (dimensionless distance); 5 or 10 uM (library dependent); higher = stronger phenotypic change vs DMSO (phenoactivity)
CONDITIONS: 48 h
# Lookup of reported Euclidean distance keyed by entry
// return just the number, without any unit appended

Please supply the value of reported Euclidean distance for the item Cc1nc2cccc(N)c2c(=O)n1C1CCC(=O)NC1=O (stereo not given) [Avadomide(CC-122)]
0.382

Please supply the value of reported Euclidean distance for the item C[C@H](CCC(=O)NCCS(=O)(=O)O)[C@H]1CC[C@H]2[C@@H]3[C@@H](O)C[C@@H]4C[C@H](O)CC[C@]4(C)[C@H]3CC[C@]12C [Tauroursodeoxycholic Acid (TUDCA)]
0.686

###

Tested on: FB
TEST_METHOD_NOTES: Euclidean distance of Cell Painting phenotypic profile (signed KS, 77 features) to DMSO centroid (dimensionless distance); 5 or 10 uM (library dependent); higher = stronger phenotypic change vs DMSO (phenoactivity)
CONDITIONS: 48 h
Structures can show the parent of a compound that is named as a salt.
TEST_READOUT: Euclidean distance
// return just the number, without any unit appended

Look over these answered cases.
COc1ccc(C(=O)CC(=O)c2ccc(C(C)(C)C)cc2)cc1
1.02
CNCCc1ccccn1 [Betahistine mesylate]
0.999

Please supply the value of reported Euclidean distance for the item O=C(O)P(=O)(O)O [Foscarnet Sodium]
0.986

###

Test system: DU145
TEST_METHOD_NOTES: Euclidean distance of Cell Painting phenotypic profile (signed KS, 77 features) to DMSO centroid (dimensionless distance); 5 or 10 uM (library dependent); higher = stronger phenotypic change vs DMSO (phenoactivity)
CONDITIONS: 48 h
# Lookup of reported Euclidean distance keyed by entry
// return just the number, without any unit appended

O[C@@H](COc1cccc2ncccc12)CN1CCN(C2c3ccccc3[C@@H]3[C@H](c4ccccc42)C3(F)F)CC1 (stereo partly drawn)
0.754
Cc1ccc(C(=O)c2cc(O)c(O)c([N+](=O)[O-])c2)cc1 [Tolcapone]
1.08

Please supply the value of reported Euclidean distance for the item Cc1ncc([N+](=O)[O-])n1CCO [Metronidazole]
0.948

Please supply the value of reported Euclidean distance for the item Cc1nc(Nc2ncc(C(=O)Nc3c(C)cccc3Cl)s2)cc(N2CCN(CCO)CC2)n1 [Dasatinib Monohydrate]
6.08

Please supply the value of reported Euclidean distance for the item CCn1cc(C(=O)O)c(=O)c2cc(F)c(N3CCNCC3)nc21 [Enoxacin]
1.59

Please supply the value of reported Euclidean distance for the item C/C=C1/[C@H](O[C@@H]2O[C@H](CO)[C@@H](O)[C@H](O)[C@H]2O)OC=C(C(=O)OC)[C@H]1CC(=O)OCCc1ccc(O)c(O)c1 [Oleuropein]
0.63
